# assayed system: T1, human SLC34A2 (human, UniProt O95436 1-690)
# T1 construct: whole, on cells; also called human solute carrier 34 A2; NaPi2b
# T1 sequence (looked up): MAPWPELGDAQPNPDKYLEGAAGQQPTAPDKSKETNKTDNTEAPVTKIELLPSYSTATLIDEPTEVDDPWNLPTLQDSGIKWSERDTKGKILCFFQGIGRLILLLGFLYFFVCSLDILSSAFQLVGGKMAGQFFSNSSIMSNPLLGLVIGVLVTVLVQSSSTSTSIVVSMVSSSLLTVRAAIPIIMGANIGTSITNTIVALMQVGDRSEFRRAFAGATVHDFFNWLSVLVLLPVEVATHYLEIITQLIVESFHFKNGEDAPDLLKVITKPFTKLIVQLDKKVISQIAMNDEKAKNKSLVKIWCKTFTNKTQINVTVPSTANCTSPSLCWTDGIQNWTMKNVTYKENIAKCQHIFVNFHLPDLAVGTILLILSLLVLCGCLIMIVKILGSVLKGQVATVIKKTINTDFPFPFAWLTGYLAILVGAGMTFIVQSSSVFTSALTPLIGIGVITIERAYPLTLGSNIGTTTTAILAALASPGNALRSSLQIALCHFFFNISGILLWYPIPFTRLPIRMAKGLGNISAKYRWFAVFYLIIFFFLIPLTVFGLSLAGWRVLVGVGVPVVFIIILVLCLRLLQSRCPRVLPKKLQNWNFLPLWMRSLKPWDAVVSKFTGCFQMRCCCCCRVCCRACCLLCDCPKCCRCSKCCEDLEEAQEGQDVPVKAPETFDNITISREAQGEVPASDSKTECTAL
# assay overview: FACS, HEK293/human SLC34A2 cells
# Protocol: In another testing, cell based binding of hu Abs on human SLC34A2 expressing cells were assessed using flow cytometry. Briefly, the HEK293/H_SLC34A2, OVCAR3 and RMG-1 cells were incubated with hu Abs. After incubation at 4° C. for 60 minutes, the cells were washed with FACS buffer twice, then stained with fluorescent conjugated secondary antibody at 4° C. for 30 minutes. After that the cells were washed twice and analyzed by flow cytometry.
readout kind: EC50 (nM)
// note: answer is a bare numeric in nM

// below: answered binders
>>> readout_value("xi62G10E4G8 hIgG1 (antibody, V domains shown, chimeric, hIgG1) VH: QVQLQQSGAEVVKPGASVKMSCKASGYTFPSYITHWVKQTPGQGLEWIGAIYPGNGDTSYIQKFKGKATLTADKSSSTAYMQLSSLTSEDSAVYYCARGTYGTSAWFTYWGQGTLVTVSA VL: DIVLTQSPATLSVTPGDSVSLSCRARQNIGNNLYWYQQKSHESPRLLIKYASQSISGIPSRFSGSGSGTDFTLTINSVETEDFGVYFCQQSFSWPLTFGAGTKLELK")
4.26
>>> readout_value("62G10E4G8.p3.z8 hIgG1 (antibody, V domains shown, humanized hIgG1) VH: QVQLVQSGAEVKKPGASVKVSCKASGYTFPSYITHWVRQAPGQGLEWIGAIYPGNADTSYIQKFKGRVTMTADKSTSTVYMELSSLRSEDTAVYYCARGTYGTSAWFTYWGQGTLVTVSS VL: EIVLTQSPATLSASPGERATLSCRARQNIGNNLYWYQQKPGQSPRLLIKYASQSISGIPSRFSGSGSGTDFTLTISSVQSEDFAVYFCQQSFSWPLTFGAGTKLEIK")
4.42

Turning to the following binder.
For the binder 30H9B8F9.p1.z13 hIgG1 (antibody, V domains shown, humanized hIgG1) VH: QVQLVQSGAEVVKPGASVKMSCKTSGYTFTTNNMHWVKQAPGQGLEWIGAIYPGSGATAYNQKFKGRATLTADKSTSTAYMELSSLRSEATAVYYCARGMYGHGAMDYWGQGTSVTVSS VL: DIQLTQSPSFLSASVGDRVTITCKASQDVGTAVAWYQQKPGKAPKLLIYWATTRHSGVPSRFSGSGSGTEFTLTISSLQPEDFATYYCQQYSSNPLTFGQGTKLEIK , what EC50 is on record?
1.05
